B1: library; a variant is named by its letters at N, in order (parent)
chain: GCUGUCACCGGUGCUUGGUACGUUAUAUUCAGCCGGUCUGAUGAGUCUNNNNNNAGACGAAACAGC

- Variants of: B1
- protocolText: normalized RNA/DNA level without ligand (relative to sTRSVctl = 100) (log10 (% of sTRSVctl)); HEK293T overexpressing SLC46A1; higher = less ribozyme self-cleavage, higher mRNA level
- recordedConditions: without (6R,S)-folinic acid; ligand present: no
readout: normalized RNA/DNA level without ligand (log10)
Enter the number alone.

AUUGCU : 2.02
UUACUA : 1.98

Next variant, normalized RNA/DNA level without ligand (log10) to be filled in.
I have this variant here, `UUGUCC` , and I need its recorded normalized RNA/DNA level without ligand (log10).
2.01
